Data origin, for the record: the NIST ThermoML archive (doi:10.1016/j.jct.2006.05.001)

Field: Normal boiling temperature. Provide a value for each of the compounds that follow.
condition_description: Liquid; Distillation
One number for each entry, in °C.

smiles=CCCCCCCCO assay_endpoint="Normal boiling temperature" measured_number=195
smiles=CCC(=O)O assay_endpoint="Normal boiling temperature" measured_number=141.4
smiles=CCCCCCCCCCCCO assay_endpoint="Normal boiling temperature" measured_number=259.4
smiles=CCCCCCCCCCO assay_endpoint="Normal boiling temperature" measured_number=230.6

Here's the next entry for you.
Query string: Given CCCCCCCCCO , state its recorded Normal boiling temperature.
Result string: 215.2
